MEASUREMENT NOTES: toxicity evaluation, alamarBlue assay
Format: cell-based, human
CONDITION DESCRIPTION: human, MCF-10A cells; 1 μM, 72 h; read-out: percentage of viable cells
MEASURED ATTRIBUTE: viability at 72 h, 1 µM

Which viability at 72 h, 1 µM value is on record for COc1ccc(C(c2cc(OC)c(OC)c(OC)c2)n2ccnc2)cc1O (stereo not drawn) [21l] ?
> 80%

Which viability at 72 h, 1 µM value is on record for COc1ccc(C(c2cc(OC)c(OC)c(OC)c2)n2nccn2)cc1O (stereo not drawn) ?
71%

Which viability at 72 h, 1 µM value is on record for COc1ccc(C(c2cc(OC)c(OC)c(OC)c2)n2cncn2)cc1O (stereo not drawn) [19e] ?
> 80%
